- assay explanation: Oral bioavailability and pharmacokinetic study in mice
- Format: in vivo, female CD1 mice
- assay context: female, CD1, mouse, in vivo, iv, 1 mg/kg
- Description: The analysis is based on free measurable amounts of free drug in the plasma and thus is likely to be an underestimation of active drug compound due to the extensive serum albumin binding seen with drugs in this class. F = (AUCINF-PO/mean AUCINF-IV)/(DosePO/DoseIV) × 100%, AUClast was alternatively used for F calculation when AUCINF was not available or beyond 120% of AUClast. […]

compound: COc1ccc(Cn2[se]c3ccccc3c2=O)cn1 [MR6-26-2]
MRT inf: 16 min

* * *

- assay explanation: Oral bioavailability and pharmacokinetic study in mice
- Type: in vivo, female CD1 mice
- assay context: female, CD1, mouse, in vivo, po, 30 mg/kg
- Text: The analysis is based on free measurable amounts of free drug in the plasma and thus is likely to be an underestimation of active drug compound due to the extensive serum albumin binding seen with drugs in this class. F = (AUCINF-PO/mean AUCINF-IV)/(DosePO/DoseIV) × 100%, AUClast was alternatively used for F calculation when AUCINF was not available or beyond 120% of AUClast. […]

structure: COc1ccc(Cn2[se]c3ccccc3c2=O)cn1
AUC(0-inf) [ng·h/mL]: 1790

Reference source: paper PMC11130262
